substrate: ICOS as used in the OD read-out of Table E15A (Homo sapiens (Human)) (UniProt Q9Y6W8); experiment: OD read-out, format not told
Reported parental ratio values are given for each entry in this list.

ICOSL ECD-Fc N52D (Fc fusion) DTQEKEVRAMVGSDVELSCACPEGSRFDLNDVYVYWQTSESKTVVTYHIPQDSSLENVDSRYRNRALMSPAGMLRGDFSLRLFNVTPQDEQKFHCLVLSQSLGFQEVLSVEVTLHVAANFSVPVVSAPHSPSQDELTFTCTSINGYPRPNVYWINKTDNSLLDQALQNDTVFLNMRGLYDVVSVLRIARTPSVNIGCCIENVLLQQNLTVGSQTGNDIGERDKITENPVSTGEKNAAT :: 1.85 ratio to WT

Turning now to a further binder:
# input Kindly indicate its recorded parental ratio. Item: ICOSL ECD-Fc F120S/Y152H/N201S (Fc fusion) DTQEKEVRAMVGSDVELSCACPEGSRFDLNDVYVYWQTSESKTVVTYHIPQNSSLENVDSRYRNRALMSPAGMLRGDFSLRLFNVTPQDEQKFHCLVLSQSLGFQEVLSVEVTLHVAANSSVPVVSAPHSPSQDELTFTCTSINGYPRPNVHWINKTDNSLLDQALQNDTVFLNMRGLYDVVSVLRIARTPSVNIGCCIESVLLQQNLTVGSQTGNDIGERDKITENPVSTGEKNAAT
# output 0.73 ratio to WT
